# TARGET UNDER TEST: HCV polymerase (Hepatitis C virus genotype 1b, UniProt P26663)
# Construct: 2.5 pmoles (0.15 μg) HCV polymerase protein in a final volume of 75 μL
# Sequence (P26663 2420-3010): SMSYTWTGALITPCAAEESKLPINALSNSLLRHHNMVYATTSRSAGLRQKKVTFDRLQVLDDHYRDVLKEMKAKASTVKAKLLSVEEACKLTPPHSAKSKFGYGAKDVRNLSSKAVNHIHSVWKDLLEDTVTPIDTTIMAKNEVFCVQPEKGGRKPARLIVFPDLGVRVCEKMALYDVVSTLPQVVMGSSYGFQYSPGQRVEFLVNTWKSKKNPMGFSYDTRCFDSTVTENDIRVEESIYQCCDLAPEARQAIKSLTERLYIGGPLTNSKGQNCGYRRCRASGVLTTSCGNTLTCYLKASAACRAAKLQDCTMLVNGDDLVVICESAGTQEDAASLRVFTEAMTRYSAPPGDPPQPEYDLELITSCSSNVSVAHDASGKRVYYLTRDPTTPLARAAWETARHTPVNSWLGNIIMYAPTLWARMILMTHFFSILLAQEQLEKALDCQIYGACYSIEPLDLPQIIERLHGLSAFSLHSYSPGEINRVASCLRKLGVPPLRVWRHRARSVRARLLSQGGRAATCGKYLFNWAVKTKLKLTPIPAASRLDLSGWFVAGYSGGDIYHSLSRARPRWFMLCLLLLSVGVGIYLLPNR
# TEST NAME: HCV polymerase primer/template-directed transcription assay (32P-GTP incorporation, filter binding)
# Format: biochemical
# PROTOCOL CONDITIONS: recombinant HCV polymerase; 30 minutes at 30° C.; concentration giving 50% inhibition of polymerase-directed transcription; read-out: IC50
Measured pIC50 accompanies every entry in the list below.
# pIC50: negative log10 of molar concentration; output just the value

Worked set:
1. COC(=O)C(C)(C)Oc1ccc(CCC2(C3CCCC3)CC(=O)CC(=O)O2)cc1F (centres unmarked): 4.95
2. COC(=O)c1nnc(SC2=C(O)CC(CCc3ccc(OC(C)C)c(F)c3)(C3CCCC3)OC2=O)n1C (centres unmarked): 7.80
3. Cc1cc(C)n2nc(CC3=C(O)CC(CCc4ccc(O)c(C5CCCC5)c4)(C4CCCC4)OC3=O)nc2n1 (centres unmarked): 7.82
4. COc1ccc(CCC2(C3CCCC3)CC(=O)C(Cc3ccccc3)C(=O)O2)cc1Cl (centres unmarked): 6.00

Turning now to a further record.
Problem: # get_value(readout='pIC50', item= COc1ccc(CCC2(C3CCCC3)CC(O)=C(Cc3nc4ncc(C)cn4n3)C(=O)O2)c(OC)c1 (centres unmarked) )
Solution: 6.70

###

# TARGET UNDER TEST: HCV polymerase (Hepatitis C virus genotype 1b, UniProt P26663)
# Construct: 2.5 pmoles (0.15 μg) HCV polymerase protein in a final volume of 75 μL
# TEST NAME: HCV polymerase primer/template-directed transcription assay (32P-GTP incorporation, filter binding)
# Format: biochemical
# PROTOCOL CONDITIONS: recombinant HCV polymerase; 30 minutes at 30° C.; concentration giving 50% inhibition of polymerase-directed transcription; read-out: IC50
Doc: threshold 40 nM (exclusive). Items with IC50 beneath it return 1.0; others return 0.0.

1. CCc1cc(CCC2(C3CCCC3)CC(O)=C(Cc3nc4ncc(Cl)cn4n3)C(=O)O2)ccn1 (stereo not shown): 0.0
2. COc1ccc(CCC2(C3CCCC3)CC(O)=C(Sc3nc4cnccc4[nH]3)C(=O)O2)cc1Cl (stereo not shown): 1.0
3. CCC(C#N)(CC)c1ccc(CCC2(C3CCCC3)CC(O)=C(Cc3nc4ncc(Cl)cn4n3)C(=O)O2)cc1F (single isomer, unassigned; (+)) [A(266)]: 1.0

Problem: Lab note: confirm whether the reported IC50 for this molecule is below 40 nM, equality not counting. molecule: Cn1cc(Cl)c(CC2=C(O)CC(CCc3ccc(C(C)(C)C#N)c(F)c3)(C3CCCC3)OC2=O)n1 (stereo not shown)
Solution: 1.0

Problem: # TODO verify IC50 < 40 nM strictly for this molecule: COc1cc(OC)c(CCC2(C3CCCC3)CC(O)=C(Sc3n[nH]c(-c4ccccc4)n3)C(=O)O2)cc1Cl (stereo not shown)
Solution: 0.0

Problem: Please state whether IC50 is below 40 nM for Cc1ccn2nc(CC3=C(O)CC(CCc4cc(F)c(C(C)(C)C#N)c(F)c4)(C4CCCC4)OC3=O)nc2n1 (stereo not shown)
Solution: 1.0

###

# TARGET UNDER TEST: HCV polymerase (Hepatitis C virus genotype 1b)
# Construct: 2.5 pmoles (0.15 μg) HCV polymerase protein in a final volume of 75 μL
# TEST NAME: HCV polymerase primer/template-directed transcription assay (32P-GTP incorporation, filter binding)
# Assay type: biochemical
# PROTOCOL CONDITIONS: recombinant HCV polymerase; 30 minutes at 30° C.; concentration giving 50% inhibition of polymerase-directed transcription; read-out: IC50
Reported pIC50 values for the following compounds.
Give only the number. pIC50 is defined as minus log10 of concentration in molar units.

Use these answered entries as a reference point.
1) CC(=O)Oc1ccc(CCC2(C3CCCC3)CC(=O)CC(=O)O2)cc1C(C)C (stereo not drawn): 5.40
2) Cc1cnc2nc(CC3C(=O)CC(CCc4ccc(C(C)(C)C#N)c(F)c4)(C4CCCC4)OC3=O)nn2c1 (single isomer, unassigned; (+)) [A(109)]: 8.40
3) CCOC(=O)c1cnc2nc(SC3=C(O)CC(CCc4ccc(OC)c(Cl)c4)(C4CCCC4)OC3=O)nn2c1 (stereo not drawn): 7.06
4) CC(C)(CNC(=O)CCc1ccco1)c1cccc(CCC2(C3CCCC3)CC(=O)CC(=O)O2)c1 (stereo not drawn): 5.82
5) O=C1CC(=O)OC(CCc2ccc(OC3CCCCO3)cc2)(C2CCCC2)C1 (stereo not drawn): 4.48
6) CSc1ccccc1C#CCCC1(C2CCCC2)CC(=O)CC(=O)O1 (stereo not drawn): 5.08
7) COc1ccc(CCC2(C3CCCC3)CC(O)=C(Sc3nc4cc(C)ccc4[nH]3)C(=O)O2)cc1Cl (stereo not drawn): 7.17
8) CCc1cc(CCC2(C3CCCC3)CC(O)=C(Cc3nc4nc(C)ccn4n3)C(=O)O2)ccc1O (stereo not drawn): 8.00

Problem: // pIC50 lookup, key: COc1ccc(CCC2(C3CCCC3)CC(O)=C(Sc3nc4cc(Cl)c(Cl)cc4n3C)C(=O)O2)cc1Cl (stereo not drawn)
Solution: 7.82

Problem: Recorded pIC50 of CC(C)(C#N)c1ccc(CCC2(C3CCCC3)CC(O)=C(Cc3nc4ncc(Cl)cn4n3)C(=O)O2)cc1Cl (stereo not drawn) [A(198)] , please.
Solution: 7.80

Problem: Can you look up the measured pIC50 of O=C1OC(CCCCC2CCCCC2)(C2CCCC2)CC(O)=C1Sc1nnc(-c2ccncc2)[nH]1 (stereo not drawn) for me?
Solution: 6.57
